Target: T1, recombinant, soluble human ASGR-1 (human, UniProt P07306 62-291)
T1 construct: biotinylated in the binning assay; also called soluble huASGR-1; Soluble ASGR-1 (Amgen)
T1 sequence: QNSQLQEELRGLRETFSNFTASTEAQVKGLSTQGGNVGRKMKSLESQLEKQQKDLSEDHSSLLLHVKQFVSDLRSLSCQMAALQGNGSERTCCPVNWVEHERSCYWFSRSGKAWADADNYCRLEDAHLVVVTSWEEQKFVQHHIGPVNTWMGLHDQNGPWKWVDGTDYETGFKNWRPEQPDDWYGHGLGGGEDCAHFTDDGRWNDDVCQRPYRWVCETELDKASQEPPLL
Experiment: Octet BLI dissociation, pH 5.6 plus calcium
Experimental: The relative dissociation of ASGR-1 from antibodies was measured using a label-free assay on an OctetHTX instrument (Fortebio). Antibody samples were captured on anti-HuFc kinetic biosensors (ForteBio cat #18-5064) at 5 ug/mL in assay buffer (10 mM Tris, 0.1% Triton, 150 mM NaCl, 1 mg/mL BSA, 1 mM CaCl2, pH7.4) for three minutes. […] Soluble ASGR-1 (Amgen) at 6 ug/ml in assay buffer was added and association to the antibodies was monitored for two minutes. […]
observable: % Change Compared to pH 7.4 + Calcium (%)
All answers are understood in %, so give the number only.

binder	value_units	% Change Compared to pH 7.4 + Calcium
57A7 (antibody, V domains shown, hybridoma mAb) VH: QVQLVQSGAEVKKPGASVKVSCKASGYTFTGYHIHWVRQAPGQDLEWMGWINPNNNGTNYAQKFQGRVTMTRDTSISTAYMELSRLRSDDTAVYYCARDGRSGFDYWGQGTLVTVSS VL: DIQMTQSPSSVSASVGDRVTITCRASQGISRWLAWYQQKPGKAPNLLIYAASNLQSGVPSRFSGSGSGTDFTLTISSLQPEDFATYYCQQANSFPFTFGPGTKVDIK	%	13

Incoming: Reported % Change Compared to pH 7.4 + Calcium for 74G6 (antibody, V domains shown, hybridoma mAb) VH: QVQLVESGGGVVQPGRSLRLSCAASGFTFSSYGMHWVRQAPGKGLEWVAVIWYDGSNKNYADSVKGRFTISRDNSKNTLYLQMNSLRAEDTAVYYCARDGSYGYDGLDYWGQGTLVTVSS VL: DIQMTQSPSSLSASVGDRVTITCRASQGIGKYLAWFQQKPGKAPKSLIYTTSSLQSGAPSKFSGSGSGTDFTLTISSLQYEDFATYYCQQYSNYPLTFGGGTKVEIN : what is it?
Outgoing: -9

Incoming: Reported % Change Compared to pH 7.4 + Calcium for 194C1 (antibody, V domains shown, hybridoma mAb) VH: QVQLVESGGGVVQPGRSLRLSCAASGFTFSSYGMHWVRQAPGKGLEWVAVIWYDGSNEHYADSVKGRFTISRDNSKNTLYLQMNSLRAEDTAVYYCARNRGVGYYGLDVWGQGTTVTVSS VL: DIQMTQSPSSLSASVGDRVTITCRASQGISNYLAWFQQKPGKAPKSLIYAASSLQSGVPSKFSGSGSGTDFTLTISSLQPEDFATYYCLHYLTYPLTFGGGTKVEIK : what is it?
Outgoing: -12

Incoming: Reported % Change Compared to pH 7.4 + Calcium for 60C12 (antibody, V domains shown, hybridoma mAb) VH: QVQLVESGGGVVQPGRSLRLSCAASGFTFSSYGMHWVRQAPGKGLEWVAVIWYDGSNKYYVDSVKGRFTISRDNSKNTLYLQMNSLRAEDTAVYYCARRYSRSWTGGMDVWGQGTTVTVSS VL: DIVMTQTPLSLSVTPGQPASISCKSSQSLLHSEGKTYLYWYLQKPGQPPQFLIYEVSNRFSGVPDRFSGSGSGTDFTLKISRVEAEDVGIYYCMQSIKYPLTFGGGTKVEIK : what is it?
Outgoing: -3

Incoming: Reported % Change Compared to pH 7.4 + Calcium for 27E7 (antibody, V domains shown, hybridoma mAb) VH: QVQLVESGGGVVQPGRSLRLSCAASGFTFSSYGMHWVRQAPGKGLEWVAVIWYDGSNKYYADSVKGRFTISRDNSKNTLYLQMNSLRAEDTAVYYCAREDSYCSSTSCPYYYYYGMDVWGQGTTVTVSS VL: SYELTQPPSVSVSPGQTASITCSGDKLGNKYACWYQQKPGQSPVEVIYQDSKRPLGIPERFSGSNSGNTATLTISGTQAMDEADYYCQAWDSSTVVFGGGTKLTVL : what is it?
Outgoing: 35
